Molecular target: SSTR1 (Homo sapiens)
Construct: purchased Promega (in-house HiBiT-GPCR construct library, NanoBRET)
Sequence (P30872 whole entry): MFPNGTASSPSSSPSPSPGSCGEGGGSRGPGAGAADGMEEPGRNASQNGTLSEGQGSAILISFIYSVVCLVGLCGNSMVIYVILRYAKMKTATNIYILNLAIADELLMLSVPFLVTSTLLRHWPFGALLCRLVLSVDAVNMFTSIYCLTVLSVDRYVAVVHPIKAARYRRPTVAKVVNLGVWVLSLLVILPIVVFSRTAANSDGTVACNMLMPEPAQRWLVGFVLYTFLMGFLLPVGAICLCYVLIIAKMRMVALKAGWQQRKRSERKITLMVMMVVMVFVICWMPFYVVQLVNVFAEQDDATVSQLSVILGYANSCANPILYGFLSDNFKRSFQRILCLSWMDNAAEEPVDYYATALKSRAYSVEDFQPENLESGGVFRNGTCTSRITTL
Assay: NanoBRET screen HiBiT-SSTR1 in HEK293
Format: binding
Details: SSTR1; tracer 0.1μM
observed property: NanoBRET Fold Response
Please give the numeric answer without any surrounding text.

molecule: O=C(CCOCCOCCOCCOCCNC(=O)CCc1ccc2n1[B-](F)(F)[N+]1=C(c3ccc[nH]3)C=CC1=C2)NCCCN1CCN(C2=Nc3ccccc3Oc3ccc(Cl)cc32)CC1
NanoBRET Fold Response: 1.06
//
molecule: N#CN=C(NCCCOc1cccc(CN2CCCCC2)c1)NCCNC(=O)CCOCCOCCOCCOCCNC(=O)CCc1ccc2n1[B-](F)(F)[N+]1=C(c3ccc[nH]3)C=CC1=C2
NanoBRET Fold Response: 1.02
//
molecule: O=C(CCc1ccc2n1[B-](F)(F)[N+]1=C(c3ccc[nH]3)C=CC1=C2)NCc1ccc(C(=O)NCCOCCC(=O)N[C@@H]2CC[C@@]3(O)[C@H]4Cc5ccc(O)c6c5[C@@]3(CCN4CC3CC3)[C@H]2O6)cc1 [Naltrexone-3-NB590]
NanoBRET Fold Response: 1.06

## Input Could you please provide reported NanoBRET Fold Response for "CCCn1c(=O)c2[nH]c(-c3ccc(OCC(=O)NCCNC(=O)CCOCCNC(=O)c4ccc(CNC(=O)CCc5ccc6n5[B-](F)(F)[N+]5=C(c7ccc[nH]7)C=CC5=C6)cc4)cc3)nc2n(CCC)c1=O" ? Thanks!
## Output 0.98

## Input Could you please provide reported NanoBRET Fold Response for "Cc1cc2c(s1)Nc1ccccc1N=C2N1CCN(CCCNC(=O)CCOCCOCCOCCOCCNC(=O)CCc2ccc3n2[B-](F)(F)[N+]2=C(c4ccc[nH]4)C=CC2=C3)CC1" ? Thanks!
## Output 1.08

## Input Could you please provide reported NanoBRET Fold Response for "CC(C)N(CC[C@H](c1ccccc1)c1cc(CCNC(=O)CCOCCOCCOCCOCCNC(=O)CCc2ccc3n2[B-](F)(F)[N+]2=C(c4ccc[nH]4)C=CC2=C3)ccc1O)C(C)C" ? Thanks!
## Output 1.11

## Input Could you please provide reported NanoBRET Fold Response for Cc1nc2n(c(=O)c1CCN1CCC(c3noc4cc(F)ccc34)CC1)CCCC2OC(=O)NCCOCCOCCOCCOCCNC(=O)CCc1ccc2n1[B-](F)(F)[N+]1=C(c3ccc[nH]3)C=CC1=C2 (centres unmarked) ? Thanks!
## Output 1.08

## Input Could you please provide reported NanoBRET Fold Response for "COc1ccccc1N1CCN(CCCCN2C(=O)c3ccc(CNC(=O)CCOCCOCCOCCOCCNC(=O)CCc4ccc5n4[B-](F)(F)[N+]4=C(c6ccc[nH]6)C=CC4=C5)cc3C2=O)CC1" ? Thanks!
## Output 0.94

* * *

Target: MC2R (Homo sapiens)
Construct: purchased Promega (in-house HiBiT-GPCR construct library, NanoBRET)
Sequence (Q01718 whole entry): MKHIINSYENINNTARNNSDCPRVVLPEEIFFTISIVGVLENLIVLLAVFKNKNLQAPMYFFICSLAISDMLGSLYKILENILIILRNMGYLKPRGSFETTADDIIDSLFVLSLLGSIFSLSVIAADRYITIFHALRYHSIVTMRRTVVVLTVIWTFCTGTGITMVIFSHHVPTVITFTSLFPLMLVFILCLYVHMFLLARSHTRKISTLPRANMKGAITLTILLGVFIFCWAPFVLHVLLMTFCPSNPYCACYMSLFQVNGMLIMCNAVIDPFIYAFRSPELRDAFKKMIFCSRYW
Assay: NanoBRET screen HiBiT-MC2R in HEK293
Type: binding
Settings: MC2R; tracer 1μM
observed property: NanoBRET Fold Response

## Input Could you please provide reported NanoBRET Fold Response for "CC(C)N(CC[C@H](c1ccccc1)c1cc(CCNC(=O)c2ccc(CNC(=O)CCc3ccc4n3[B-](F)(F)[N+]3=C(c5ccc[nH]5)C=CC3=C4)cc2)ccc1O)C(C)C" ? Thanks!
## Output 1.06

## Input Could you please provide reported NanoBRET Fold Response for O=C(CCc1ccc2n1[B-](F)(F)[N+]1=C(c3ccc[nH]3)C=CC1=C2)NCc1ccc(C(=O)NCCOCCC(=O)N[C@@H]2CC[C@@]3(O)[C@H]4Cc5ccc(O)c6c5[C@@]3(CCN4CC3CC3)[C@H]2O6)cc1 [Naltrexone-3-NB590] ? Thanks!
## Output 1.15

## Input Could you please provide reported NanoBRET Fold Response for "O=C(CCc1ccc2n1[B-](F)(F)[N+]1=C(c3ccc[nH]3)C=CC1=C2)NCCOCCOCCNC(=O)OCCOCCN1CCN(C2=Nc3ccccc3Sc3ccccc32)CC1" ? Thanks!
## Output 0.95

## Input Could you please provide reported NanoBRET Fold Response for "CCCn1c(=O)c2[nH]c(-c3ccc(OCC(=O)NCCNC(=O)CCOCCNC(=O)c4ccc(CNC(=O)CCc5ccc6n5[B-](F)(F)[N+]5=C(c7ccc[nH]7)C=CC5=C6)cc4)cc3)nc2n(CCC)c1=O" ? Thanks!
## Output 1.05

## Input Could you please provide reported NanoBRET Fold Response for Cc1nc2n(c(=O)c1CCN1CCC(c3noc4cc(F)ccc34)CC1)CCCC2OC(=O)NCCOCCOCCOCCOCCNC(=O)CCc1ccc2n1[B-](F)(F)[N+]1=C(c3ccc[nH]3)C=CC1=C2 (centres unmarked) ? Thanks!
## Output 1.06

* * *

Measured NanoBRET Fold Response, listed per entry.
Target: NMUR1 (Homo sapiens, UniProt Q9HB89)
Construct: purchased Promega (in-house HiBiT-GPCR construct library, NanoBRET)
Sequence (Q9HB89 whole entry): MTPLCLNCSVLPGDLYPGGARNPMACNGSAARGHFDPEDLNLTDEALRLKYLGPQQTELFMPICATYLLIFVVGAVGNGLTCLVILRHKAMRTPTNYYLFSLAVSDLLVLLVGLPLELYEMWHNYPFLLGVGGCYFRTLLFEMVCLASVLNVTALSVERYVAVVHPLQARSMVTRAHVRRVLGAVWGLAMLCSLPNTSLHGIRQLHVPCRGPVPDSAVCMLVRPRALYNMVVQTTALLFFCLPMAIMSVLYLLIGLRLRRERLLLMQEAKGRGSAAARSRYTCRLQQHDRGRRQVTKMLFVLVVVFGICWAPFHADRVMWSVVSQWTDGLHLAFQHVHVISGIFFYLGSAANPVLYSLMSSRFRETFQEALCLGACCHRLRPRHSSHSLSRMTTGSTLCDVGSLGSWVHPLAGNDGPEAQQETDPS
Assay: NanoBRET screen HiBiT-NMUR1 in HEK293
Format: binding
Settings: NMUR1; tracer 1μM
Please give the numeric answer without any surrounding text.

The following compounds have reported results that may help.
compound: CC(C)N(CC[C@H](c1ccccc1)c1cc(CCNC(=O)c2ccc(CNC(=O)CCc3ccc4n3[B-](F)(F)[N+]3=C(c5ccc[nH]5)C=CC3=C4)cc2)ccc1O)C(C)C
NanoBRET Fold Response: 1.02
--
compound: Cc1cc2c(s1)Nc1ccccc1N=C2N1CCN(CCCNC(=O)CCOCCOCCOCCOCCNC(=O)CCc2ccc3n2[B-](F)(F)[N+]2=C(c4ccc[nH]4)C=CC2=C3)CC1
NanoBRET Fold Response: 1.00
--
compound: N#CN=C(NCCCOc1cccc(CN2CCCCC2)c1)NCCNC(=O)CCOCCOCCOCCOCCNC(=O)CCc1ccc2n1[B-](F)(F)[N+]1=C(c3ccc[nH]3)C=CC1=C2
NanoBRET Fold Response: 0.98
--
compound: O=C(CCc1ccc2n1[B-](F)(F)[N+]1=C(c3ccc[nH]3)C=CC1=C2)NCCOCCOCCNC(=O)OCCOCCN1CCN(C2=Nc3ccccc3Sc3ccccc32)CC1
NanoBRET Fold Response: 0.81
--
compound: COc1ccccc1N1CCN(CCCCN2C(=O)c3ccc(CNC(=O)CCOCCOCCOCCOCCNC(=O)CCc4ccc5n4[B-](F)(F)[N+]4=C(c6ccc[nH]6)C=CC4=C5)cc3C2=O)CC1
NanoBRET Fold Response: 0.98

Query compound follows.
## Input Could you please provide reported NanoBRET Fold Response for Cc1nc2n(c(=O)c1CCN1CCC(c3noc4cc(F)ccc34)CC1)CCCC2OC(=O)NCCOCCOCCOCCOCCNC(=O)CCc1ccc2n1[B-](F)(F)[N+]1=C(c3ccc[nH]3)C=CC1=C2 (stereo not drawn) ? Thanks!
## Output 0.97

* * *

Target: GRM7 (Homo sapiens)
Construct: purchased Promega (in-house HiBiT-GPCR construct library, NanoBRET)
Sequence (Q14831 35-915): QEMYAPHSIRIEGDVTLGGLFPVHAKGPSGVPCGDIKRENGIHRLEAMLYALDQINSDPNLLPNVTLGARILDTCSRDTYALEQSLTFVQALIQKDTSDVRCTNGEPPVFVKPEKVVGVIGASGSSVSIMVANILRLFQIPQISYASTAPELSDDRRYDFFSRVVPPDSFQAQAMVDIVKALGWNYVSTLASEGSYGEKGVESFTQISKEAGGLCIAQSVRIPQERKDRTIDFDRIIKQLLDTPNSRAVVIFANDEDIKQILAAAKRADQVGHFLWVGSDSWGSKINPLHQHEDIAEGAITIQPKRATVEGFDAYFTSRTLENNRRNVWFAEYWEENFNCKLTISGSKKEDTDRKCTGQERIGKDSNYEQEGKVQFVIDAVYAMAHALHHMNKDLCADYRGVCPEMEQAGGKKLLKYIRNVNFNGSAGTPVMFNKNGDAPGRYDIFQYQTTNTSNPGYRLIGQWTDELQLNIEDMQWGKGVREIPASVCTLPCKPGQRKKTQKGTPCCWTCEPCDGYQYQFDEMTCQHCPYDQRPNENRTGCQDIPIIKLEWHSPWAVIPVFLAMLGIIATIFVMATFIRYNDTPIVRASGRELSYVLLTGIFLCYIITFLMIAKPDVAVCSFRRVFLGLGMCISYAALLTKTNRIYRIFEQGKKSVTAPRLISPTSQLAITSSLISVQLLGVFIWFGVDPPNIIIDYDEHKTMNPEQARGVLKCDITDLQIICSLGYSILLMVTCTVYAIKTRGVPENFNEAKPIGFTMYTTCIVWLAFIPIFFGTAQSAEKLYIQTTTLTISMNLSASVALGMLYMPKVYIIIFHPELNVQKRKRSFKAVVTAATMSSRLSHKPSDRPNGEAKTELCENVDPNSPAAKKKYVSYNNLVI
Experiment: NanoBRET screen HiBiT-GRM7 in HEK293
Format: binding
Conditions: GRM7; tracer 1μM
observed property: NanoBRET Fold Response
Please give the numeric answer without any surrounding text.

given smiles: CN(C)CCC=C1c2ccccc2CCc2ccc(C(=O)NCCNC(=O)CCOCCOCCOCCOCCNC(=O)CCc3ccc4n3[B-](F)(F)[N+]3=C(c5ccc[nH]5)C=CC3=C4)cc21
measured on: GRM7 (Homo sapiens)
NanoBRET Fold Response: 1.00
//
given smiles: Cc1cc2c(s1)Nc1ccccc1N=C2N1CCN(CCCNC(=O)CCOCCOCCOCCOCCNC(=O)CCc2ccc3n2[B-](F)(F)[N+]2=C(c4ccc[nH]4)C=CC2=C3)CC1
measured on: GRM7 (Homo sapiens)
NanoBRET Fold Response: 1.02
//
given smiles: CC(C)N(CC[C@H](c1ccccc1)c1cc(CCNC(=O)CCOCCOCCOCCOCCNC(=O)CCc2ccc3n2[B-](F)(F)[N+]2=C(c4ccc[nH]4)C=CC2=C3)ccc1O)C(C)C
measured on: GRM7 (Homo sapiens)
NanoBRET Fold Response: 0.89
//
given smiles: COc1ccccc1N1CCN(CCCCN2C(=O)c3ccc(CNC(=O)CCOCCNC(=O)c4ccc(CNC(=O)CCc5ccc6n5[B-](F)(F)[N+]5=C(c7ccc[nH]7)C=CC5=C6)cc4)cc3C2=O)CC1
measured on: GRM7 (Homo sapiens)
NanoBRET Fold Response: 0.95
//
given smiles: N#CN=C(NCCCOc1cccc(CN2CCCCC2)c1)NCCNC(=O)CCOCCOCCOCCOCCNC(=O)CCc1ccc2n1[B-](F)(F)[N+]1=C(c3ccc[nH]3)C=CC1=C2
measured on: GRM7 (Homo sapiens)
NanoBRET Fold Response: 1.05

Query molecule follows.
## Input Could you please provide reported NanoBRET Fold Response for "CCCn1c(=O)c2[nH]c(-c3ccc(OCC(=O)NCCNC(=O)CCOCCNC(=O)c4ccc(CNC(=O)CCc5ccc6n5[B-](F)(F)[N+]5=C(c7ccc[nH]7)C=CC5=C6)cc4)cc3)nc2n(CCC)c1=O" ? Thanks!
## Output 1.07
